Biological target: T1, O12-bH
T1 chain: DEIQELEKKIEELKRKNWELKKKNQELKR
Test: two-hybrid library CCNG1;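 further: natural log of median RNA to DNA barcode read ratio; higher means stronger binding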
testReadout: interaction score

* DKIQELKKEIEELERENWELEKENQELER [O11-bH] | 1.01

1: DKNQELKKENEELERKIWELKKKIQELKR [O10-bH]
2: DEIQELEKKIEELKRKNWELKKKNQELKR [O12-bH]
Could you tell me which of 1 and 2 has the lower interaction score reading? Pick one; state its label.
1
(1: -1.91, 2: 0.775)
